System: Trypanosoma cruzi
Assay: Trypanosoma cruzi phosphomannomutase and mannose-1-phosphate guanylyltransferase assay
Type: functional
Parameters: scale not given: direction of the effect not stated beside the values
Settings: 10 µM

COMPOUND: COc1c(CNCCNC(=O)Cc2ccc(F)cc2)c(C)nn1C
ASSAYED_TARGET: Trypanosoma cruzi
Percent Effect: -7.52%

COMPOUND: Cn1cccc1CN1CCC2(CCCN(C(=O)Cc3cccnc3)C2)C1 (configuration not stated)
ASSAYED_TARGET: Trypanosoma cruzi
Percent Effect: -2.07%

COMPOUND: Cc1cc(CN(Cc2cccs2)CC2CCCO2)no1 (configuration not stated)
ASSAYED_TARGET: Trypanosoma cruzi
Percent Effect: -1.33%

COMPOUND: COc1cc(CNC(=O)Nc2cc(C(F)(F)F)c[nH]c2=O)ccn1
ASSAYED_TARGET: Trypanosoma cruzi
Percent Effect: 1.13%

COMPOUND: O=C(NCC1CC1)C1CN(C(=O)c2cccc(Cl)c2)CC12CCOCC2 (configuration not stated)
ASSAYED_TARGET: Trypanosoma cruzi
Percent Effect: -9.37%

COMPOUND: CCOc1cc(CN(C)CCOC)ccc1OC(F)F
ASSAYED_TARGET: Trypanosoma cruzi
Percent Effect: -9.34%

COMPOUND: O=C(N[C@@H]1CN(Cc2ccsc2)[C@@H]2CCCO[C@@H]21)C1CC1
ASSAYED_TARGET: Trypanosoma cruzi
Percent Effect: -0.193%

COMPOUND: CC(C)N(C)Cc1cnc2n1CCN(CCc1ccccc1)C2
ASSAYED_TARGET: Trypanosoma cruzi
Percent Effect: 0.586%

COMPOUND: CCN(CC)C(=O)c1cc(C2CCCN2C)ccn1 (configuration not stated)
ASSAYED_TARGET: Trypanosoma cruzi
Percent Effect: 0.988%

COMPOUND: NC(=O)CCOc1nc(-c2ccccc2Cl)no1
ASSAYED_TARGET: Trypanosoma cruzi
Percent Effect: 8.23%

COMPOUND: COc1cc(CNC(=O)NCc2c(C)cc(C)[nH]c2=O)ccc1C
ASSAYED_TARGET: Trypanosoma cruzi
Percent Effect: 5.64%

COMPOUND: CN(C)C(=O)CNC(=O)c1ccc(Cl)cc1F
ASSAYED_TARGET: Trypanosoma cruzi
Percent Effect: 3.99%

Hey, just so you know, these numbers are from ChEMBL document CHEMBL3988442.
